Biological target: recombinant human 5-HT6 receptor (Homo sapiens, UniProt P50406)
Sequence (P50406 whole entry): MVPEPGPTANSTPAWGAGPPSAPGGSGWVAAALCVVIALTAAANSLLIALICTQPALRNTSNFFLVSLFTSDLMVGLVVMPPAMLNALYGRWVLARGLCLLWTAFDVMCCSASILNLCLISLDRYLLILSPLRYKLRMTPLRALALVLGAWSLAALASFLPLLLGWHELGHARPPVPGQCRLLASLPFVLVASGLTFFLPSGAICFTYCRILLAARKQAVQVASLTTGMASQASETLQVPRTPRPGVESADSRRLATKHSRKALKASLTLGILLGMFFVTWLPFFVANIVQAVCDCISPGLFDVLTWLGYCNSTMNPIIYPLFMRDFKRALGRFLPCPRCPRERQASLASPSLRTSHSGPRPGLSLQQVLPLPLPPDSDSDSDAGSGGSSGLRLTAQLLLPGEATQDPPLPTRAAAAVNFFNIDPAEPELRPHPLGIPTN
Assay: radioligand binding to serotonin receptor 5-HT6 ([3H] Lysergic acid diethylamide)
Excerpt: Mol. Pharmacol. 43:320-327, 1993]. […] Methiothepin is used as positive control.
Catalogue of pIC50 readings, one per entry.
The meaning of pIC50 here: minus log10 of the concentration in molar units.

Cc1ccc(S(=O)(=O)n2c3c(c4cc(C)ccc42)CN(C)CCC3)cc1.Cl [1.8.1(3)•HCl] | 7.46
Cc1ccc2c(c1)c1c(n2CCc2ccccn2)CCN(C)C1.Cl.Cl [1.1.2(2-3)•2HCl] | 6.96
CN1CCc2c(c3ccccc3n2Cc2ccccc2)C1 | 6.99

# context switch: different compound, same pIC50
Q: I am curious: what pIC50 value has been reported for CN1CCc2c(c3ccccc3n2Cc2ccccc2)C1.Cl [1.9(1)•HCl] ?
Ans: 6.48
